# target-or-test-system: human MT2 receptor (Homo sapiens, UniProt P49286)
# Construct: melatonin MT1 and MT2 receptors cDNA were individually subcloned into pcDNA3 and introduced into NIH-3T3 cells using Lipofectamine; expressed in transfected cells
# Sequence (P49286 1-362): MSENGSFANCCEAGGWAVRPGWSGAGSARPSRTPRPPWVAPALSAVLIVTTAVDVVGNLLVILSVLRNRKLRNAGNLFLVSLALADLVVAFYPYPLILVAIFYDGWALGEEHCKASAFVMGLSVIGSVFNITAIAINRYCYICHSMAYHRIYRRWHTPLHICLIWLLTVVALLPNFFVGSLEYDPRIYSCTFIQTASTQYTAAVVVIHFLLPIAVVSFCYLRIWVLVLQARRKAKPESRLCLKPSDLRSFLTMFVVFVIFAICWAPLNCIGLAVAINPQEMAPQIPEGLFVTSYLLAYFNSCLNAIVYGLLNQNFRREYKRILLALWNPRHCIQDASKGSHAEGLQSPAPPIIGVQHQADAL
# protocol-description: Melatonin receptor binding assay (MT2), 2-[125I]-iodomelatonin
property-label: IC50

Query O=C(OCc1ccccc1)N1CCc2cc3c(cc2C1CCc1ccc(F)cc1)OCO3 (stereo not shown) [Example 100] yields IC50 of 100 to 1000 nM

###

# target-or-test-system: human MT2 receptor (Homo sapiens, UniProt P49286)
# Construct: melatonin MT1 and MT2 receptors cDNA were individually subcloned into pcDNA3 and introduced into NIH-3T3 cells using Lipofectamine; expressed in transfected cells
# protocol-description: Melatonin receptor binding assay (MT2), 2-[125I]-iodomelatonin
# details: membrane homogenates of NIH-3T3 cells expressing MT2; 2-[125I]-iodomelatonin 0.2 nM; 37° C., 1 hour; read-out: MT2 IC50
property-label: IC50

COc1cc2c(cc1Br)CCN(C(=O)COc1ccccc1)C2CC(c1ccccc1)c1ccccc1 (stereo not drawn) : 100 to 1000 nM

Query CC(=O)OCC(=O)N1CCc2cc3c(cc2C1CCc1ccc(Cl)cc1)OCO3 (stereo not drawn) yields IC50 of 100 to 1000 nM

Query O=C(c1ccno1)N1CCc2cc3c(cc2C1CCc1ccc(F)cc1)OCO3 (stereo not drawn) yields IC50 of < 100 nM

Query O=C(c1ccno1)N1CCc2cc3c(cc2C1CCc1ccc(Cl)cc1)OCO3 (stereo not drawn) yields IC50 of 100 to 1000 nM

Query COc1ccc2c(c1)C(CCc1ccc(F)cc1)N(C(=O)OCC(C)C)CC2 (stereo not drawn) yields IC50 of 100 to 1000 nM

Query COc1ccc2c(c1)C(CC(c1ccccc1)c1ccccc1)N(C(C)=O)CC2 (stereo not drawn) [Example 19] yields IC50 of < 100 nM

###

# target-or-test-system: human MT2 receptor (Homo sapiens, UniProt P49286)
# Construct: melatonin MT1 and MT2 receptors cDNA were individually subcloned into pcDNA3 and introduced into NIH-3T3 cells using Lipofectamine; expressed in transfected cells
# protocol-description: Melatonin receptor binding assay (MT2), 2-[125I]-iodomelatonin
# details: membrane homogenates of NIH-3T3 cells expressing MT2; 2-[125I]-iodomelatonin 0.2 nM; 37° C., 1 hour; read-out: MT2 IC50
pIC50: −log10 of the molar value.
property-label: pIC50

Answered cases to consult:
O=C(c1ccccc1)N1CCc2cc3c(cc2C1CCc1ccc(Cl)cc1)OCO3 (centres unmarked) [Example 137] : 6.00 to 7.00
COc1cc2c(cc1OC)C(CC(c1ccccc1)c1ccccc1)N(C=O)CC2 (centres unmarked) [Example 2] : > 7.00
COCC(=O)N1CCc2cc3c(cc2C1CCc1ccc(Cl)cc1)OCO3 (centres unmarked) [Example 140] : > 7.00

Query CCCCCCC(=O)N1CCc2cc(OC)c(OC)cc2C1CCc1ccccc1 (centres unmarked) [Example 61] yields pIC50 of 6.00 to 7.00

Query COc1cc2c(cc1OC)C(CCc1ccccc1)N(C(=O)CC(C)(C)C)CC2 (centres unmarked) [Example 63] yields pIC50 of 6.00 to 7.00

Query COc1ccc(C(=O)N2CCc3cc4c(cc3C2CCc2ccc(Cl)cc2)OCO4)cc1 (centres unmarked) [Example 141] yields pIC50 of 6.00 to 7.00

Query COc1cc2c(c(OC)c1)C(CC(c1ccccc1)c1ccccc1)N(C(C)=O)CC2 (centres unmarked) [Example 21] yields pIC50 of > 7.00

Query COc1cc2c(cc1OC)C(CC(c1ccccc1)c1ccccc1)N(C(N)=O)CC2 (centres unmarked) [Example 8] yields pIC50 of > 7.00

Query COc1ccc2c(c1)C(CCc1ccc(F)cc1)N(C(=O)OCc1ccccc1)CC2 (centres unmarked) [Example 114] yields pIC50 of 6.00 to 7.00

Query O=C(C=Cc1ccccc1)N1CCc2cc3c(cc2C1CCc1ccc(Cl)cc1)OCO3 (centres unmarked) [Example 150] yields pIC50 of 6.00 to 7.00
